- study.conditions: 308.15 K; 101.33 kPa; Liquid
The reader will find reported viscosity values listed item by item below.
Field: numeric (mPa·s). Do not append units.

# annotated cases, reported viscosity shown
In [3]: df
Out[3]:
   chemical_smiles  number
0          OCCCCCO      64
1             OCCO   11.35
2            OCCCO   26.44

Proceed to the following item.
// returns reported viscosity for input `O=C1CCCN1`
8.922

###

- study.conditions: 308.15 K; 101.33 kPa; Liquid; Sing-around technique in a fixed-path interferometer
recorded.endpoint: speed of sound (m/s)
Enter your answer as a number in m/s; do not include the unit.

>>> df
                  compound  units  number
0  OCCCO [propan-1,3-diol]    m/s  1604.5

Given the entry OCCCCCO [1,5-pentanediol] , report its measured speed of sound.
1566.1

Query O=C1CCCN1 [2-pyrrolidinone] next
1600

Same lookup for OCCO [1,2-ethanediol] , please.
1633.4

Source listed as the NIST ThermoML archive (doi:10.1016/j.jct.2007.08.005).
